Entries and their DAR
Assay: Average drug loading (DAR, drug to antibody ratio) from LC/MS of reduced, deglycosylated conjugates
Details: conjugate with trastuzumab (TBS); average number of payload molecules per antibody
// return a plain number; no unit text

Compound	DAR
CC(C)(C)[C@@H](NC(=O)c1csc(CN)n1)c1nc(-c2cc(F)ccc2F)cn1Cc1ccccc1 [Compound 45]	4.8

Bench note: what DAR did O=C(NCCO)N(C[C@@H]1CNC[C@@H]1F)[C@@H](c1nc(-c2cc(F)ccc2F)cn1Cc1ccccc1)C1CCOCC1 [Compound 58] show?
5.3

Bench note: what DAR did C[C@H](O)C(=O)N(CC[C@H](N)CF)[C@H](c1nc(-c2cc(F)ccc2F)cn1Cc1ccccc1)C1CCS(=O)(=O)CC1 [Compound 24] show?
1.2

Bench note: what DAR did COC(=O)N(C[C@@H](F)CN)[C@@H](c1nc(-c2cc(F)ccc2F)cn1Cc1ccccc1)C(C)(C)C [Compound 41] show?
4.5
